assay-explanation: in vivo
run-conditions: male, ICR, mouse, po, 30 mg/kg
observable: Tmax (min)
Numbers only, in min.

* Cc1cc(N)c(F)c(-c2ncc3c(N4C[C@H]5CC[C@@H](C4)N5)nc(OC[C@@]45CCCN4C[C@@]4(CC4(F)F)C5)nc3c2F)c1C(F)(F)F [Example 26] | 15
* N#Cc1c(N)sc2c(F)ccc(-c3ncc4c(N5CC6CCC(C5)N6)nc(OC[C@@]56CCCN5C[C@@]5(CC5(F)F)C6)nc4c3F)c12 [Example 24] | 30

Let's switch to this molecule now.
Task: Give recorded Tmax. Nc1cc(Cl)c(C(F)(F)F)c(-c2ncc3c(N4C[C@H]5CC[C@@H](C4)N5)nc(OC[C@@]45CCCN4C[C@@]4(CC4(F)F)C5)nc3c2F)c1 [Example 27]
Result: 15

###

assay-explanation: in vivo
run-conditions: male, ICR, mouse, po, 30 mg/kg
I'd be grateful if you could share measured Cmax for these entries.
One number for each entry, in ng/mL.

Known results for molecules:
* Nc1cc(Cl)c(C(F)(F)F)c(-c2ncc3c(N4C[C@H]5CC[C@@H](C4)N5)nc(OC[C@@]45CCCN4C[C@@]4(CC4(F)F)C5)nc3c2F)c1 [Example 27] | 953
* N#Cc1c(N)sc2c(F)ccc(-c3ncc4c(N5CC6CCC(C5)N6)nc(OC[C@@]56CCCN5C[C@@]5(CC5(F)F)C6)nc4c3F)c12 [Example 24] | 461

Okay, now this molecule:
Task: // Input: Cc1cc(N)c(F)c(-c2ncc3c(N4C[C@H]5CC[C@@H](C4)N5)nc(OC[C@@]45CCCN4C[C@@]4(CC4(F)F)C5)nc3c2F)c1C(F)(F)F [Example 26] . Output its Cmax only.
Result: 462

###

Please respond with reported IC50 for every item in the list.
System: AsPC-1
assay-explanation: Cell proliferation inhibition, AsPC-1 (CellTiter-Glo 3D, 7 days)
Type: cell-based
run-conditions: AsPC-1, 7 days
One number for each entry, in nM.

* C#Cc1c(F)ccc2cc(O)cc(-c3ncc4c(N5C[C@@H]6CC[C@](C)(C5)N6)nc(OC[C@@]56CCCN5C[C@@]5(CC5(F)F)C6)nc4c3F)c12 [Example 20B] | 4.86
* C#Cc1c(F)ccc2cc(O)cc(-c3ncc4c(N5C[C@H]6CC[C@@](C)(C5)N6)nc(OC[C@@]56CCCN5C[C@@]5(CC5(F)F)C6)nc4c3F)c12 [Example 20A] | 4.11

Task: Check the records and state IC50 for C#Cc1c(F)ccc2cc(O)cc(-c3ncc4c(N5C[C@H]6CC[C@@H](C5)N6)nc(OCC56CC(F)(F)CN5CC5(CC5)C6)nc4c3F)c12 (stereo partly drawn) [Example 14]
Result: 921
